This section presents compounds with their documented absorption maximum values.
Experiment: solvent given as SMILES
Condition: in OCC(F)(F)F
Recorded metric: absorption maximum (nm)

[[record]]
compound = "CCC1=C(C)C2=C(C)c3c(C)c(CC)c(C)n3[B-](F)(F)[N+]2=C1C"
recorded_metric = "absorption maximum"
unit_descriptor = "nm"
reported = 515.7

[[record]]
compound = "NC(=O)CC[C@H](/[NH+]=C\\C=C1\\C=C(C(=O)O)N[C@H](C(=O)O)C1)C(=O)O"
recorded_metric = "absorption maximum"
unit_descriptor = "nm"
reported = 473

[[record]]
compound = "Cc1ccc(C2=C3C=CC=[N+]3[B-](F)(F)n3cccc32)cc1"
recorded_metric = "absorption maximum"
unit_descriptor = "nm"
reported = 493

[[record]]
compound = "CN(C)c1ccc(/C=C/C=C2\\CC/C(=C\\C=C\\c3ccc(N(C)C)cc3)C2=O)cc1"
recorded_metric = "absorption maximum"
unit_descriptor = "nm"
reported = 534

[[record]]
compound = "COC(=O)C(Cc1ccc2oc(-c3ccc(N(c4ccccc4)c4ccccc4)cc3)nc2c1)NC(=O)OC(C)(C)C (stereo not given)"
recorded_metric = "absorption maximum"
unit_descriptor = "nm"
reported = 366.1

[[record]]
compound = "CCC1=C(C)C2=C(C)c3cc(I)c(I)n3[B-](F)(F)[N+]2=C1C"
recorded_metric = "absorption maximum"
unit_descriptor = "nm"
reported = 511.5

[[record]]
compound = "Cc1ccc(C2=C3C=C(I)C=[N+]3[B-](F)(F)n3cccc32)cc1"
recorded_metric = "absorption maximum"
unit_descriptor = "nm"
reported = 513

[[record]]
compound = "FC(F)(F)C(F)(F)C(F)(F)C(F)(F)C(F)(F)C(F)(F)C(F)(F)C(F)(F)CCOc1nnc(Cl)nn1"
recorded_metric = "absorption maximum"
unit_descriptor = "nm"
reported = 509

[[record]]
compound = "F[B-]1(F)n2cccc2C=C2C=CC=[N+]21"
recorded_metric = "absorption maximum"
unit_descriptor = "nm"
reported = 497

[[record]]
compound = "C#CCNC1=C2C(C)=CC(C)=[N+]2[B-](F)(F)n2c(C)cc(C)c21"
recorded_metric = "absorption maximum"
unit_descriptor = "nm"
reported = 450.5


###

List of absorption maximum values.
Experiment: solvent given as SMILES
Condition: in C1COCCO1
Recorded metric: absorption maximum (nm)

[[record]]
input_smiles = "Nc1ccc(C#Cc2ccc3ccc4ccc(C#Cc5ccc(N)cc5)c5ccc2c3c45)cc1"
recorded_metric = "absorption maximum"
reported = 420

[[record]]
input_smiles = "CCCCC[n+]1ccc(/C=C/c2ccc(N(C)C)c3ccccc23)c2ccccc21"
recorded_metric = "absorption maximum"
reported = 495

[[record]]
input_smiles = "c1ccc(-c2ccc(-c3ccccc3)cc2)cc1"
recorded_metric = "absorption maximum"
reported = 276

[[record]]
input_smiles = "COC(=O)c1ccc(/C=C2\\C=C(c3ccc(C#N)cc3)OC2=O)cc1"
recorded_metric = "absorption maximum"
reported = 404

[[record]]
input_smiles = "CCCCCCCCCCCCCCCCOc1cc(C#Cc2ccc3ccccc3c2-c2c(C#Cc3cc(OCCCCCCCCCCCCCCCC)c(C#Cc4ccc(C=C(C#N)C#N)cc4)cc3OCCCCCCCCCCCCCCCC)ccc3ccccc23)c(OCCCCCCCCCCCCCCCC)cc1C#Cc1ccc(C=C(C#N)C#N)cc1"
recorded_metric = "absorption maximum"
reported = 425

[[record]]
input_smiles = "O=C1/C(=C\\c2ccc(N(c3ccccc3)c3ccccc3)cc2)S(=O)(=O)c2ccccc21"
recorded_metric = "absorption maximum"
reported = 475

[[record]]
input_smiles = "COC(=O)c1ccc(/C=C2\\N=C(c3ccc(OC)c(OC)c3)NC2=O)cc1"
recorded_metric = "absorption maximum"
reported = 403

[[record]]
input_smiles = "F[B-]1(F)n2ccnc2-c2cccc[n+]21"
recorded_metric = "absorption maximum"
reported = 297

[[record]]
input_smiles = "Cc1ccc(Nc2ccc(Nc3ccc(C)cc3)c3c2C(=O)c2ccccc2C3=O)cc1"
recorded_metric = "absorption maximum"
reported = 638

